Hey, just so you know, these numbers are from ChEMBL document CHEMBL5614456.

IC50 reference
Experiment: Inhibition of ERK phosphorylation at Thr202/Tyr204 residues in human ASPC1 cells harboring KRAS G12D mutant […] incubated for 24 hrs by ELISA
Type: cell-based
Conditions: ASPC1, 24 h
A number alone suffices; assume nM.

Please give the measured IC50 for this compound: Cc1c(F)cc2c(cnn2C2CCCCO2)c1-c1c(C2CC2)cc2c(N3C[C@@H]4C[C@H]3CN4C(=O)OC(C)(C)C)nc(OC3COC3)nc2c1OCc1ccccc1 (stereo partly drawn)
6

Please give the measured IC50 for this compound: CC(C)(C)OC(=O)N1C[C@@H]2C[C@H]1CN2c1nc(OC2CCOCC2)nc2c(OCc3ccccc3)c(Br)c(C3CC3)cc12
15

Please give the measured IC50 for this compound: Cc1ncsc1-c1ccc([C@@H](CO)NC(=O)[C@@H]2C[C@@H](O)CN2C(=O)[C@H](C(C)C)n2cc(-c3ccc(COc4c(-c5c(C)c(F)cc6c5cnn6C5CCCCO5)c(C5CC5)cc5c(N6C[C@@H]7C[C@H]6CN7C(=O)OC(C)(C)C)nc(OC6CCOCC6)nc45)cc3)nn2)cc1 (stereo partly drawn)
8

----------
Test: Inhibition of ERK phosphorylation at Thr202/Tyr204 residues in human ASPC1 cells harboring KRAS G12D mutant […] incubated for 24 hrs by ELISA
Type: cell-based
Conditions: ASPC1, 24 h
Just a reminder that ties go to 0: only IC50 strictly below 0.02 µM counts as 1.

Consider the following illustrative entries.
- compound: "Cc1ncsc1-c1ccc(C2(NC(=O)[C@@H]3C[C@@H](O)CN3C(=O)[C@H](C(C)C)n3cc(-c4ccc(COc5c(-c6c(C)c(F)cc7c6cnn7C6CCCCO6)c(C6CC6)cc6c(N7C[C@@H]8C[C@H]7CN8C(=O)OC(C)(C)C)nc(OC7CCOCC7)nc56)cc4)nn3)CC2)cc1 (stereo not given in full)"
  group.label: 1
- compound: "CCCCCCCCCCCCSc1nc(N2C[C@@H]3C[C@H]2CN3C(=O)OC(C)(C)C)c2cc(C3CC3)c(Br)c(OCc3ccccc3)c2n1"
  group.label: 1
- compound: "Cc1c(F)cc2c(cnn2C2CCCCO2)c1-c1c(C2CC2)cc2c(N3C[C@@H]4C[C@H]3CN4C(=O)OC(C)(C)C)nc(OC3CCOCC3)nc2c1OCc1ccc(-c2cn([C@H](C(=O)N3C[C@H](O)C[C@H]3C(=O)N[C@H](CO)c3ccc(-c4ccnn4C)cc3)C(C)C)nn2)cc1 (stereo not given in full)"
  group.label: 1
- compound: "CCSc1nc(N2C[C@@H]3C[C@H]2CN3C(=O)OC(C)(C)C)c2cc(C3CC3)c(Br)c(OCc3ccccc3)c2n1"
  group.label: 0

Now, please, on to the next compound.
IC50 strictly < 0.02 µM for this compound? CCSc1nc(N2C[C@@H]3C[C@H]2CN3C(=O)OC(C)(C)C)c2cc(I)c(Br)c(OCc3ccccc3)c2n1
1
